Assay: Half life in human liver microsomes at 3 uM up to 45 mins in presence of NADPH by LC-MS/MS analysis
Assay type: ADME, microsome
Cut-off 1 h on half-life at 3 µM: below means T, at or above means F.

Please indicate whether the reported half-life at 3 µM of C1CCC(C(CC2CCCCN2)C2CCCCC2)CC1.O=C(O)/C=C\C(=O)O (configuration not stated) [PERHEXILINE MALEATE] is strictly below 1 h.
F

Please indicate whether the reported half-life at 3 µM of C1CCC(C(CC2CCCCN2)C2CCCC2)CC1 (configuration not stated) is strictly below 1 h.
F

Please indicate whether the reported half-life at 3 µM of C1CCC(C(CC2CCCCN2)C2CCOCC2)CC1 (configuration not stated) is strictly below 1 h.
F

Please indicate whether the reported half-life at 3 µM of FC1(F)CCCC(C(CC2CCCCN2)C2CCCCC2)C1 (configuration not stated) is strictly below 1 h.
F

Please indicate whether the reported half-life at 3 µM of C1CCC(CC(C2CCCC2)C2CC2)NC1 (configuration not stated) is strictly below 1 h.
T

Please indicate whether the reported half-life at 3 µM of C1CCC(CC(C2CCCC2)C2CCC2)NC1 (configuration not stated) is strictly below 1 h.
T

Please indicate whether the reported half-life at 3 µM of C1CCC(C(C[C@@H]2CCCCN2)C2CCCCC2)CC1 is strictly below 1 h.
F

Please indicate whether the reported half-life at 3 µM of Fc1ccc(C(CC2CCCCN2)C2CCCCC2)cc1 (configuration not stated) is strictly below 1 h.
F

Please indicate whether the reported half-life at 3 µM of CC1(C)CCC(C(CC2CCCCN2)C2CCCCC2)CC1 (configuration not stated) is strictly below 1 h.
F

Please indicate whether the reported half-life at 3 µM of C1CCC(CC(C2CCCC2)C2CCCC2)NC1 (configuration not stated) is strictly below 1 h.
T

Please indicate whether the reported half-life at 3 µM of C1CCC(C(CC2CCCCN2)C2CCC2)CC1 (configuration not stated) is strictly below 1 h.
F

Please indicate whether the reported half-life at 3 µM of C1CCC(C(CC2CCCCN2)C2CCCCC2)CC1 (racemic) [PERHEXILINE] is strictly below 1 h.
F

###

Experiment: Ratio of drug level in myocardium to plasma in BALB/c mouse at 10 mg/kg, po administered via gavage every 24 hrs for 7 days measured 1 hr post last dose by LC-MS/MS analysis
Format: ADME, organism-based
Conditions: myocardium and plasma
For each of the molecules below, state its Kp at 1 h.

For the molecule C1CCC(C(CC2CCCCN2)C2CCCCC2)CC1 (racemic) , what Kp at 1 h is on record?
5.7

For the molecule FC1(F)CCC(C(CC2CCCCN2)C2CCCCC2)CC1 (configuration not stated) , what Kp at 1 h is on record?
10.7

###

Assay: Ratio of drug level in myocardium to plasma in BALB/c mouse at 10 mg/kg, po administered via gavage every 24 hrs for 7 days measured 4 hrs post last dose by LC-MS/MS analysis
Format: ADME, organism-based
Settings: myocardium and plasma
Property Measured: Kp at 4 h
Hey, just send me the number, nothing else.

For the compound FC1(F)CCC(C(CC2CCCCN2)C2CCCCC2)CC1 (configuration not stated) , what Kp at 4 h is on record?
10.9

For the compound C1CCC(C(CC2CCCCN2)C2CCCCC2)CC1 (racemic) , what Kp at 4 h is on record?
4.9
